Examples of molecules with documented DC50 follow.
Molecular target: IRAK4 (Homo sapiens, UniProt Q9NWZ3)
Construct: endogenous in cells; host or cells: OCI-LY10
Sequence (Q9NWZ3 1-460): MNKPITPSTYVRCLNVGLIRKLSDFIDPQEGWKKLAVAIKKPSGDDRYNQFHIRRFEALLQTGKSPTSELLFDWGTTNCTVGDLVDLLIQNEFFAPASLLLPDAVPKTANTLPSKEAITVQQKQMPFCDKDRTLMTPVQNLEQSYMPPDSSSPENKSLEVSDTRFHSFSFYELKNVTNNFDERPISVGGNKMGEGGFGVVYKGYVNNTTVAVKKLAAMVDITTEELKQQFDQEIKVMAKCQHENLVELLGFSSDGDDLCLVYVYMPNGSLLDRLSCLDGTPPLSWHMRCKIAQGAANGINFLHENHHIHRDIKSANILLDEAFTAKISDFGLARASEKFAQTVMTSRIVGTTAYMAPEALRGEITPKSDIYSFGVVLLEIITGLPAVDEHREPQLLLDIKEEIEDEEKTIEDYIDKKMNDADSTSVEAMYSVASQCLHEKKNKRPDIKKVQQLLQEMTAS
Assay: IRAK4 MSD Degradation in OCI-LY10
Format: cell-based
Settings: OCI-LY10 cells, Meso Scale Discovery, incubated 4 to 24 hours

// DC50 lookup, key: Cc1cc2nn([C@H]3CC[C@H](CN4C5CC4CN(c4cccc6c4n(C)c(=O)n6C4CCC(=O)NC4=O)C5)CC3)cc2cc1NC(=O)c1cccc(C(F)(F)F)n1 (stereo partly drawn) [I-396]
0.01 to 0.05 µM

Similarly, Cn1c(=O)n(C2CCC(=O)NC2=O)c2cccc(C3CCN(C[C@H]4CC[C@H](n5cc6cc(NC(=O)c7cnn8cc(C#N)cnc78)ccc6n5)CC4)CC3)c21 (stereo partly drawn) [I-95] ?
< 0.01 µM

Also COc1cc2nc([C@H]3CC[C@H](CN(C)CCCCNc4cccc5c4C(=O)N(C4CCC(=O)NC4=O)C5=O)CC3)sc2cc1NC(=O)c1cncc(C)c1 (stereo partly drawn) [I-460] , if possible.
> 0.2 µM
